# assay.system: Cytochrome P450 1A2 (Homo sapiens) (UniProt P05177)
# Sequence (P05177 whole entry, looked up): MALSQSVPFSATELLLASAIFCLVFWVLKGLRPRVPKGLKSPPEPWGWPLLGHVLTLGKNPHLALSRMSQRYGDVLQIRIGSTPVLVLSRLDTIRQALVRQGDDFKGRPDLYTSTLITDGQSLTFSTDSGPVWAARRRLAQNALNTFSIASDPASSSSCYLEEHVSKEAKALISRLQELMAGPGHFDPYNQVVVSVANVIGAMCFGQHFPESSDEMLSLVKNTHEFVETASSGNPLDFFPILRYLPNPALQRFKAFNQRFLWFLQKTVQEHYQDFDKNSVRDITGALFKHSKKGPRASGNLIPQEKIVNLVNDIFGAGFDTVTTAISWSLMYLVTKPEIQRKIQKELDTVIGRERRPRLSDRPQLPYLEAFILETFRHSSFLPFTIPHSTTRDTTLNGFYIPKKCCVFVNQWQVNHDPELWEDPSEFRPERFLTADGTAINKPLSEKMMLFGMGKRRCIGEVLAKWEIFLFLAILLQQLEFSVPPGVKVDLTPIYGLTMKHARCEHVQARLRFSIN
# protocol.text: Cytochrome P450 Family 1 Subfamily A Member 2 (CYP1A2) small molecule antagonists: luciferase reporter qHTS assay (AID 1671199); further: nearly all actives have a fitted effect of over 50% in size
# condition.info: P450-Glo CYP1A2 enzyme, luciferin luminescence, 1 h; series mostly up to 53 µM
Records with an inconclusive call do not appear. Activity calls are given as the source filed them. The call rests on the fitted dose curve; in most records, active means well fitted inhibition curve with a large enough effect in the repeat runs; inconclusive means weak or mixed curves; inactive means no such curve, though single readings can be large or run the other way.
The reply should be one of these categories: active, inactive

input: What call does the record list for CNc1ncnc2nc[nH]c12 ?
output: inactive

input: What call does the record list for O=C1CC2(CCCC2)CC(=O)N1 ?
output: inactive

input: What call does the record list for CCCC(C)C(=O)O (centres undefined) ?
output: active

input: What call does the record list for CCCC(C)CO (centres undefined) ?
output: active

input: What call does the record list for COc1cc(C)cc(O)c1 ?
output: active

input: What call does the record list for NC(=O)c1ncn([C@@H]2O[C@H](CO)[C@@H](O)[C@H]2O)c1N ?
output: inactive

input: What call does the record list for NC(CS)C(=O)O (centres undefined) ?
output: active

input: What call does the record list for CCCCNc1ccccc1 ?
output: inactive

input: What call does the record list for C=C[Si](OC)(OC)OC ?
output: active

input: What call does the record list for CC(O)CN(CCCN(C)C)CCCN(C)C (centres undefined) ?
output: inactive

input: What call does the record list for O=C(O)/C=C/c1ccc(Cn2ccnc2)cc1 ?
output: active

input: What call does the record list for CO[Si](OC)(OC)OC ?
output: active

input: What call does the record list for CCCCCCCCCCCCCCC ?
output: inactive

input: What call does the record list for C=CCOCC(O)CS(=O)(=O)O (centres undefined) ?
output: inactive

input: What call does the record list for CSc1nc(NC2CC2)nc(NC(C)(C)C)n1 ?
output: active

input: What call does the record list for CC(C)CCCCCCN ?
output: inactive

input: What call does the record list for C1C2OC2C2C1C1CC2C2OC12 (centres undefined) ?
output: inactive

input: What call does the record list for NC(=O)CCCCC1CCSS1 (centres undefined) ?
output: inactive

input: What call does the record list for O=C(O)c1cccc(C(=O)O)n1 ?
output: inactive

input: What call does the record list for COc1ccc(NC(C)=O)cc1 ?
output: active

input: What call does the record list for Nc1cc(N)cc(C(=O)O)c1 ?
output: inactive

input: What call does the record list for CC1=CC(=O)CCC1 ?
output: inactive

input: What call does the record list for C[N+](C)(C)CC[N+]1(C)Cc2c(Cl)c(Cl)c(Cl)c(Cl)c2C1 ?
output: inactive

input: What call does the record list for CC1(C)SC(C)(C)SC(C)(C)S1 ?
output: inactive

input: What call does the record list for O=C(O)C1CCC1 ?
output: inactive

input: What call does the record list for O=S(=O)(O)c1ccccc1O ?
output: inactive

input: What call does the record list for CCCC=O ?
output: inactive

input: What call does the record list for Cc1onc(-c2ccccc2)c1-c1ccc(S(N)(=O)=O)cc1 ?
output: inactive

input: What call does the record list for c1ccc2cnncc2c1 ?
output: active
